Ki reference
assay: Inhibition of HCV NS4A tagged recombinant single chain NS3 protease after 15 mins; design: species or system Hepacivirus hominis
Quick note: number first, unit second.

compound | parameter | result
CC1(NC(=O)N[C@H](C(=O)N2C[C@H]3[C@@H]([C@H]2C(=O)NC(CC2CC2)C(=O)C(N)=O)C3(C)C)C(C)(C)C)CCCC1 (stereo not given in full) | Ki | 10 nM

Given CC(C)(C)[C@H](NC(=O)NC1(CS(C)(=O)=O)CCCCC1)C(=O)N1C[C@H]2[C@@H]([C@H]1C(=O)NC(CC1CC1)C(=O)C(N)=O)C2(C)C (stereo not given in full) , state its recorded Ki.
2 nM

Okay, and CC(C)(C)[C@H](NC(=O)NC1(Cc2ccccn2)CCCCC1)C(=O)N1C[C@H]2[C@@H]([C@H]1C(=O)NC(CC1CC1)C(=O)C(N)=O)C2(C)C (stereo not given in full) ?
7 nM

Okay, and CC(C)(C)[C@H](NC(=O)NC1(Cc2ccccc2)CCCCC1)C(=O)N1C[C@H]2[C@@H]([C@H]1C(=O)NC(CC1CC1)C(=O)C(N)=O)C2(C)C (stereo not given in full) ?
12 nM

Okay, and CC(C)(C)[C@H](NC(=O)NC1(CS(=O)(=O)c2cccc(O)c2)CCCCC1)C(=O)N1C[C@H]2[C@@H]([C@H]1C(=O)NC(CC1CC1)C(=O)C(N)=O)C2(C)C (stereo not given in full) ?
6 nM

====

test: Selectivity for HCV NS3 protease over human neutrophil elastase
parameter: Ratio
// no unit, no text: just the number

Some molecules with recorded Ratio:
molecule | Ratio
CC(C)(C)[C@H](NC(=O)NC1(CS(C)(=O)=O)CCCCC1)C(=O)N1C[C@H]2[C@@H]([C@H]1C(=O)NC(CC1CC1)C(=O)C(N)=O)C2(C)C (some centres not stated) | 460
CC(C)(C)[C@H](NC(=O)NC1(Cc2ccccc2O)CCCCC1)C(=O)N1C[C@H]2[C@@H]([C@H]1C(=O)NC(CC1CC1)C(=O)C(N)=O)C2(C)C (some centres not stated) | 440

Given CC1(NC(=O)N[C@H](C(=O)N2C[C@H]3[C@@H]([C@H]2C(=O)NC(CC2CC2)C(=O)C(N)=O)C3(C)C)C(C)(C)C)CCCCCC1 (some centres not stated) , state its recorded Ratio.
155

Okay, and CC(C)(C)[C@H](NC(=O)NC1(Cc2ccccc2)CCCCCC1)C(=O)N1C[C@H]2[C@@H]([C@H]1C(=O)NC(CC1CC1)C(=O)C(N)=O)C2(C)C (some centres not stated) ?
73

Okay, and CCC(c1ccccc1)C1(NC(=O)N[C@H](C(=O)N2C[C@H]3[C@@H]([C@H]2C(=O)NC(CC2CC2)C(=O)C(N)=O)C3(C)C)C(C)(C)C)CCCCC1 (some centres not stated) ?
1500

Okay, and CC(C)(C)[C@H](NC(=O)NC1(CS(C)(=O)=O)CCCCC1)C(=O)N1C[C@H]2[C@@H]([C@H]1C(=O)NC(CC1CCC1)C(=O)C(N)=O)C2(C)C (some centres not stated) ?
2400

Okay, and CC(C)(C)[C@H](NC(=O)NC1(CS(=O)(=O)Cc2ccco2)CCCCC1)C(=O)N1C[C@H]2[C@@H]([C@H]1C(=O)NC(CC1CC1)C(=O)C(N)=O)C2(C)C (some centres not stated) ?
200

====

assay: Inhibition of HCV NS4A tagged recombinant single chain NS3 protease after 15 mins; parameters: species or system Hepacivirus hominis
parameter: pKi
pKi is defined as minus the log10 of a concentration measured in mol/L.

Some molecules with recorded pKi:
molecule | pKi
CC(C)(C)NC(=O)N[C@H](C(=O)N1C[C@H]2[C@@H]([C@H]1C(=O)NC(CC1CCC1)C(=O)C(N)=O)C2(C)C)C(C)(C)C (stereo partly drawn) [BOCEPREVIR] | 7.85
CC(C)(C)[C@H](NC(=O)NC1(Cc2ccsc2)CCCCC1)C(=O)N1C[C@H]2[C@@H]([C@H]1C(=O)NC(CC1CC1)C(=O)C(N)=O)C2(C)C (stereo partly drawn) | 8.00

From here, focus on the item given below.
Given CC(C)(C)[C@H](NC(=O)NC1(Cc2ccco2)CCCCC1)C(=O)N1C[C@H]2[C@@H]([C@H]1C(=O)NC(CC1CC1)C(=O)C(N)=O)C2(C)C (stereo partly drawn) , state its recorded pKi.
7.96

====

test: Inhibition of HCV NS4A tagged recombinant single chain NS3 protease after 15 mins; design: species or system Hepacivirus hominis
parameter: Ki (nM)
State just the number; it will be interpreted in nM.

molecule | Ki [nM]
CC1(NC(=O)N[C@H](C(=O)N2C[C@H]3[C@@H]([C@H]2C(=O)NC(CC2CC2)C(=O)C(N)=O)C3(C)C)C(C)(C)C)CCCCC1 (stereo not given in full) | 16
CC(C)(C)[C@H](NC(=O)NC1(CS(=O)(=O)c2ccccn2)CCCCC1)C(=O)N1C[C@H]2[C@@H]([C@H]1C(=O)NC(CC1CCC1)C(=O)C(N)=O)C2(C)C (stereo not given in full) | 10
CC(C)(C)[C@H](NC(=O)NC1(CS(=O)(=O)c2ccccc2)CCCCC1)C(=O)N1C[C@H]2[C@@H]([C@H]1C(=O)NC(CC1CC1)C(=O)C(N)=O)C2(C)C (stereo not given in full) | 3
CC(C)(C)[C@H](NC(=O)NC1(Cc2nccs2)CCCCC1)C(=O)N1C[C@H]2[C@@H]([C@H]1C(=O)NC(CC1CC1)C(=O)C(N)=O)C2(C)C (stereo not given in full) | 11

Given CC(C)(C)[C@H](NC(=O)NC1(CS(=O)(=O)c2ccccc2)CCCCC1)C(=O)N1C[C@H]2[C@@H]([C@H]1C(=O)NC(CC1CCC1)C(=O)C(N)=O)C2(C)C (stereo not given in full) , state its recorded Ki.
9
